# Tested on: BT-549 breast
# ASSAY SUMMARY: NCI-60 one-dose screen, 48 h (100 = growth as untreated, 0 = no growth, -100 = all killed)
# TEST CONDITIONS: 10 µM
This is part of a sample that, as a whole, favours compounds with a hit. Of some 83,000 tested, about 20% had one in any assay.
The entries below come with measured growth values attached.
Enter your answer as a number in %; do not include the unit.

Worked set:
O=C(N/N=C/c1ccc(-c2cccc([N+](=O)[O-])c2)o1)c1[nH]c2ccc(Br)cc2c1-c1ccccc1
30.5
CC(=O)Oc1ccccc1C(=O)Oc1ccc(C(=O)/C=C/c2ccncc2)cc1
31
N#Cc1ccc(-c2nn(-c3ccc(C(=O)O)cc3)cc2CNc2cc(Cl)cc(Cl)c2)cc1
-1.57

So what does the record say about growth for `Cc1cc2c(c(O)c1Br)-c1ncoc1C(=O)[C@]1(C)CC[C@H](C(C)C)[C@H]21` ?
-24.6

Try this molecule too: `Cc1cc(C)nc(NS(=O)(=O)c2ccc(N/C(N)=N/c3nccc(-c4ccccc4)n3)cc2)n1`
83.7

Try this molecule too: `O=C(NO)c1ccc(CNC(=O)[C@H]2Cc3c([nH]c4ccccc34)[C@H](c3ccc(Cl)cc3)N2)cc1`
26.9

Try this molecule too: CCOC(=O)C1NN(c2ccc(S(N)(=O)=O)cc2)c2nc3nc(-c4cccs4)cc(-c4cccs4)c3c(=O)n21 (stereo not drawn)
50.1

Try this molecule too: CC1(c2ccccc2)NC(=O)N(CC(=O)Nc2ccc(C(=O)/C=C/c3ccccc3)cc2)C1=O (stereo not drawn)
36

* * *

The entries below come with measured growth values attached.
# Test system: LOX IMVI melanoma
# ASSAY SUMMARY: NCI-60 one-dose screen, 48 h (100 = growth as untreated, 0 = no growth, -100 = all killed)
# TEST CONDITIONS: 10 µM
About 83,000 compounds went through this panel and 20% of them were active in at least one assay; those are over-represented in the sample as a whole. Activity calls are given as the source filed them. The calls were made as follows: active = growth percent below 10; inactive = the rest.

Cn1c(O)c(N=Nc2nc(-c3cc4ccccc4oc3=O)cs2)c2cc(Br)ccc21
56.7% (inactive)
CC(=O)c1ccc(NC(=O)NCn2c(=O)[nH]c3ccccc3c2=O)cc1
92.8% (inactive)
Cc1ccc(-c2cc(-c3cc4ccccc4nc3Cl)[nH]c(=O)n2)cc1
-82.4% (active)
CCOc1ccc(/C=N/NC(=O)Cn2nc(Cc3ccc([N+](=O)[O-])cc3)c3onc(C)c3c2=O)cc1
-63.5% (active)

// switching to the query molecule
So what does the record say about growth for `COc1ccc(-c2nc(S(=O)(=O)c3ccc(C)cc3)c(S(C)(=O)=O)o2)cc1` ?
-89.1% (active)

* * *

# System: RPMI-8226 leukemia
# ASSAY SUMMARY: NCI-60 one-dose screen, 48 h (100 = growth as untreated, 0 = no growth, -100 = all killed)
# TEST CONDITIONS: 10 µM
This is part of a sample that, as a whole, favours compounds with a hit. Of some 83,000 tested, about 20% had one in any assay.
MEASURE NAME: growth (%)
Enter your answer as a number in %; do not include the unit.

CN1CCc2c(sc3ncnc(N/N=C/c4cn(-c5ccccc5)nc4-c4ccc(Cl)cc4)c23)C1
23.7
COc1ccc2nc(Nc3cccc(NC(=O)c4ccc(CN5CCN(C)CC5)c(C(F)(F)F)c4)c3)ccc2c1
-33
CCCCCCCCCCCCCCCCCCCC(=O)NCCc1c[nH]c2ccc(OC(=O)NOCCOCCOCCOCCOCCOCCOCCOCCOCCOCCOCCOCCOCCOCCOCCOCCOCCOCCOCCOCCOCCOCCOC)cc12
-29.5
Cc1ccc(C(C)C)cc1NC(=O)c1ccccc1N(C)C
72.6
N[C@@H](CSSC[C@H](N)C(=O)Nc1ccc(OCC2CCCC2)cc1)C(=O)Nc1ccc(OCC2CCCC2)cc1
-57.3
O=C(/C=C/Nc1ccccc1)c1ccc2c(c1)Nc1ccccc1S2
90.9

So what does the record say about growth for `COc1cccc(-c2nn(-c3ccccc3)cc2-c2ccnc(NCCCNC(=O)Nc3ccc(F)cc3)c2)c1` ?
-27.4

Try this compound too: `CC(=O)Oc1ccccc1C(=O)Oc1ccc(C(=O)/C=C/c2ccncc2)cc1`
13.6

Try this compound too: `COC[C@@H](CC(C)C)N=C1NC(=O)/C(=C/c2ccc3ncsc3c2)N1`
4.92

Try this compound too: `COc1cc(Cn2c(C(F)(F)F)cc3c(Cl)ncnc32)ccn1`
6.17

Try this compound too: Cc1ccc(CNC(=O)Cc2ccc3c(c2)CN(C2CCC(=O)NC2=O)C3=O)cc1 (centres undefined)
30.3

Try this compound too: `CCOC(=O)c1c(CSc2ccccc2)n(C)c2cc(CN(C)C)c(O)c(CN(C)C)c12`
28.5

Try this compound too: `O=c1[nH]c2ccc(Cl)cc2cc1CSc1ccc(Nc2nccc(-c3ccc(Cl)cc3)n2)cc1`
73

Try this compound too: `CCCn1c(=O)c2[nH]c(-c3ccc(OCc4nc5ccc(F)cc5[nH]4)cc3)nc2n(CCC)c1=O`
16.7

Try this compound too: `COc1ccccc1C(=O)NNC(=O)CSc1nc2c(c(=O)[nH]1)CCCC2`
98.1

Try this compound too: `CCCCOc1ccc(Nc2nc3ccccc3nc2Nc2ccc(OCCCC)cc2)cc1`
57.8

Try this compound too: CC1=C(C(=O)OC(C)C)C(c2ccc(O)cc2)NC(=S)N1 (centres undefined)
95.7

Try this compound too: `CCCCSc1nc(Nc2ccc(/C(C)=N/NC(N)=S)cc2)c(C#N)c(-c2ccc(OC)cc2)n1`
67.8

Try this compound too: `COc1ccc(OC)c(-c2cc(-c3c[nH]c4ccccc34)nc(N)c2C#N)c1`
6.3

* * *

# Test system: A549/ATCC NSCLC
# ASSAY SUMMARY: NCI-60 one-dose screen, 48 h
# TEST CONDITIONS: 10 µM
Compounds without any hit were thinned out: in the full panel of roughly 83,000, 20% have a hit. The source made the active and inactive calls. The calls were made as follows: active = growth percent below 10; inactive = the rest.
Give one outcome, nothing more. List: 1 (active), -1 (inactive)

Past entries and their recorded results:
O=C(Cn1cc(CSc2nnc3oc4ccccc4n23)nn1)Nc1cccc(Cl)c1
-1
NS(=O)(=O)c1ccc(NC(=O)CSc2ccc(-c3ccccc3)nn2)c(Br)c1
-1

Could you please tell me the result logged for `Cc1ccc([N+](=O)[O-])c(C(=O)Nc2ccc(-c3ccc4c(c3)NC(=O)/C4=C\c3ccc[nH]3)cc2)c1` in this assay?
-1

Try this compound too: C=C1CCC2C3(C)COC(c4ccccc4F)OC3CCC2(C)C1C/C=C1/C(=O)OCC1O (centres undefined)
1

Try this compound too: `CN1CCN(c2ccc(C(=O)/C=C/c3ccc(OC(F)F)cc3)cc2)CC1`
-1

Try this compound too: `COc1ccc(-c2cc(C(=O)N=Nc3c(O)[nH]c4ccc(F)cc34)c3ccccc3n2)cc1`
-1

Try this compound too: `Cc1ccc(-c2ccc(SCC(=O)Nc3ccc(S(N)(=O)=O)cc3Br)nn2)cc1`
-1

Try this compound too: `CC(C)Sc1nc(NC2CC2)c(C#N)c(-c2ccccc2)n1`
-1

Try this compound too: `Nc1cccnc1/C=N/NC(=S)NCCNC(=O)c1ccc(-n2nc(-c3ccccc3O)nc2-c2ccccc2O)cc1`
-1

* * *

# Tested on: M14 melanoma
# ASSAY SUMMARY: NCI-60 one-dose screen, 48 h (100 = growth as untreated, 0 = no growth, -100 = all killed)
# TEST CONDITIONS: 10 µM
This is part of a sample that, as a whole, favours compounds with a hit. Of some 83,000 tested, about 20% had one in any assay.
MEASURE NAME: growth (%)
Enter your answer as a number in %; do not include the unit.

Worked set:
CC(=O)Nc1ccc(-c2cn(-c3cccc(C(=O)Nc4ccc(F)c(C(F)(F)F)c4)c3)nn2)cn1
62.6
O=C(Cn1nc(-c2ccccc2)ccc1=O)NNC(=S)NC1CCCCC1
122
Cc1ccc(-c2cc(C(=O)N=Nc3c(O)[nH]c4ccc(Br)cc34)c3ccccc3n2)cc1
75.6

So what does the record say about growth for `COc1ccc(-c2cc(C(=O)N=Nc3c(O)[nH]c4ccccc34)c3ccccc3n2)cc1` ?
11.1

Try this compound too: `O=c1[nH]n(C(=S)N/N=C/c2ccc(F)cc2)c(=O)c2ccccc12`
78.1

Try this compound too: `Nc1nc(-c2ccccc2)cs1`
72.2

Try this compound too: `CCN1CCN(c2ccc(NC(=O)Nc3ccc(-c4cc(C(=O)NC)c5ncccc5n4)cc3)cc2C(F)(F)F)CC1`
-100

Try this compound too: `COc1ccc(N(C)c2cc(C#N)nc3ccccc23)cc1/C=C/C(=O)NO`
2.45

Try this compound too: `O=C(NO)c1ccc(CNC(=O)[C@H]2Cc3c([nH]c4ccccc34)[C@H](c3ccccc3)N2)cc1`
27.5
